B1: ANKRD40 (parent)
chain: SLRENDFIEIELDRQELTYQELLR

# Variants of: B1
# protocol_summary: protein stability index of a GFP-peptide fusion (GPS, HEK-293T) (PSI 1-6); higher = more stable;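 also: lentivirally expressed fusions sorted by FACS into six bins by GFP to DsRed ratio, PSI derived from sequencing read proportions per bin multiplied by bin number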
# applied_conditions: c terminus: a fixed tail appended
Task for the reader: assign each of the following variants its reported protein stability index.
Form field (numeric): enter value without unit.

The variant identified as `L2D` registered its protein stability index at 3.6

response.value for `E4Y` (field: protein stability index) = 2.17

Per the record, `L2K` has protein stability index of 3.01

# protein stability index (variant: `Y19A` ) is 4.12

Form: variant = `D6F` ; protein stability index = 2.12

// field: protein stability index; key: `R3D` ; value = 2.9

Entry `E16V` ; protein stability index = 2.48

protein stability index measured on `Q20D` = 3.7

For `D13F` the variant record lists protein stability index as 1.99

Record `N5Q` , field protein stability index: 2.96

Summary for this variant, `Y19E` : protein stability index is 4.6

Given item `S1G` , the value recorded as its protein stability index is 2.77

Recorded result, `S1R` , protein stability index: 3.07

Consider `L2A` . Its measured protein stability index is 3.91

Entry `Y19L` , protein stability index reported as 3.12

Item: `N5C` | protein stability index: 2.48

Recorded result, `R14C` , protein stability index: 2.09

So for `I8L` , the logged protein stability index turned out to be 3.77

The reported protein stability index of the variant `F7M` was 3.33

The reported value for `D13M` in terms of protein stability index is 2.45

Memo: `S1K` , reported protein stability index: 3.23

protein stability index reading for `L17R` : 3.25

The recorded protein stability index for entry `S1Y` equals 2.3

Short answer for `T18I` : protein stability index was 2.1

Notebook: `L2M` , protein stability index read as 3.09

The measured protein stability index associated with `E11K` reads 2.45

protein stability index measured on `Q20E` = 3.58

Memo: `D13L` , reported protein stability index: 2.04

Lab note: measured protein stability index of `R3H` was 3.08

// protein stability index lookup, variant = `E11I` , result: 2.16

Entry `E9D` ; protein stability index = 3.47

Just so you know, measured protein stability index for `Y19I` came out at 2.73

Note to self: protein stability index recorded for `E11H` was 2.68

The variant listed as `T18R` shows protein stability index equal to 3.29

protein stability index measured on `N5I` = 2.33

protein stability index reading for `I8P` : 3.89

// protein stability index value for `R14F` : 1.44

// protein stability index lookup, variant = `N5H` , result: 2.62

Consider `L2P` . Its measured protein stability index is 3.49

Query `L23W` yields protein stability index of 2.04

Recorded result, `F7L` , protein stability index: 3.79

Please fill in: protein stability index reported for `D6R` = 3.14

The reported protein stability index of the variant `D13S` was 2.54

Briefly, protein stability index measured for `R3A` : 3.29

Summary for this variant, `L22S` : protein stability index is 3.8

Given item `L17W` , the value recorded as its protein stability index is 3.1

Please fill in: protein stability index reported for `L12D` = 4.51

Entry under test: `R24I` . Its protein stability index was 2.35

Looking up `T18C` , I see its protein stability index listed as 2.46

For this variant ( `T18S` ), measured protein stability index is 3.55

// protein stability index value for `Q15D` : 3.59

Measured protein stability index, `T18K` : 2.93

The variant listed as `E21A` has a reported protein stability index of 2.44

protein stability index measured on `L12R` = 4.14

Record `E11S` , field protein stability index: 2.45

The recorded protein stability index for `L22F` is 3.14

# protein stability index (variant: `Y19G` ) is 3.86

Recorded protein stability index (variant `S1P` ): 3.26

The reported value for `L12I` in terms of protein stability index is 2.69

// field: protein stability index; key: `E4W` ; value = 2.19

The reported value for `T18W` in terms of protein stability index is 2.73

For record `Q15C` the listed protein stability index is 2.62

Lab book: protein stability index of `Q15E` noted as 3.28

GET /value?item= `Q15I` &field=protein stability index returns 1.89

Field protein stability index (entry `L17D` ) reads 3.71

Data point: `L22V` ; protein stability index = 2.77

The variant `L12F` showed protein stability index equal to 2.73

variant `E9C` , protein stability index observed: 2.17

// field: protein stability index; key: `I10H` ; value = 4.34

`E11V` has a reported protein stability index of 2.29

Recorded result, `R3K` , protein stability index: 3.23

Looking up `F7Q` , I found its protein stability index recorded as 4.17

The recorded protein stability index for `I8F` is 2.56

// `Q20V` : protein stability index value = 2.62

Reported protein stability index of `F7V` : 3.59

// field: protein stability index; key: `L23Y` ; value = 3.43

`Y19H` has a reported protein stability index of 3.71

Form field protein stability index, entry `L23S` : 4

`L22T` yielded protein stability index of 3.45

protein stability index recorded for this variant, `D6T` , is 2.34

In plain terms, `L2I` has a documented protein stability index of 2.66

In plain terms, `S1M` has a documented protein stability index of 2.66

The reported value for `D6K` in terms of protein stability index is 2.64

protein stability index for `Q20G` is 3.15

Looking up `Q20C` , I see its protein stability index listed as 2.16

Value of measured protein stability index for the entry `D6V` : 1.64

Briefly, protein stability index measured for `L17M` : 2.92

Lab note: `R14G` gave protein stability index of 3

The recorded protein stability index for `D6P` is 2.97

Measured values drawn from the supplement of paper PMC10567573 for this set.
